# System: NCI-H226
# ASSAY REMARKS: NCI single-dose GI%, NSC lung
# Format: cell-based, human
# CONDITIONS USED: 10.0 μM in one dose
READOUT TYPE: GI% (%)
I only need the number, in %, no unit after it.

In the examples that follow, each entry is paired with its recorded GI%.
>>> print(df.to_string())
                                   compound  result_unit  recorded_number
0  COc1ccc(C2=NN(C(=O)c3ccc(S(C)(=O)=O)cc3)C(c3ccccc3)C2)c(OC)c1 (centres unmarked) [Compound 18n]            %               14
1  CS(=O)(=O)c1ccc(C(=O)N2N=C(c3ccc(F)cc3)CC2c2ccc(F)cc2)cc1 (centres unmarked) [Compound 18e]            %               12
2  COc1ccccc1C1CC(c2ccccc2)=NN1C(=O)c1ccc(S(C)(=O)=O)cc1 (centres unmarked) [Compound 18i]            %               13
3  CS(=O)(=O)c1ccc(C(=O)N2N=C(c3ccccc3)CC2c2ccc3c(c2)OCO3)cc1 (centres unmarked) [Compound 18m]            %               11
4  COc1ccc(C2=NN(C(=O)c3ccc(S(C)(=O)=O)cc3)C(c3ccc(OC)c(OC)c3)C2)c(OC)c1 (centres unmarked) [Compound 18p]            %               15

IN: Please report GI% for the following compound: COc1ccc(C2CC(c3ccccc3)=NN2C(=O)c2ccc(S(C)(=O)=O)cc2)cc1 (centres unmarked) [Compound 18j]
OUT: 11

IN: Kindly indicate its recorded GI%. Item: CS(=O)(=O)c1ccc(C(=O)N2N=C(c3ccccc3)CC2c2ccc(Cl)cc2)cc1 (centres unmarked) [Compound 18b]
OUT: 15

IN: Output GI% of COc1ccc(C2=NN(C(=O)c3ccc(S(C)(=O)=O)cc3)C(c3ccccc3)C2)cc1 (centres unmarked) [Compound 18k]
OUT: 14

* * *

Notes on IC50 obtained with VEGFR2 (Homo sapiens).
Sequence (P35968 20-1356): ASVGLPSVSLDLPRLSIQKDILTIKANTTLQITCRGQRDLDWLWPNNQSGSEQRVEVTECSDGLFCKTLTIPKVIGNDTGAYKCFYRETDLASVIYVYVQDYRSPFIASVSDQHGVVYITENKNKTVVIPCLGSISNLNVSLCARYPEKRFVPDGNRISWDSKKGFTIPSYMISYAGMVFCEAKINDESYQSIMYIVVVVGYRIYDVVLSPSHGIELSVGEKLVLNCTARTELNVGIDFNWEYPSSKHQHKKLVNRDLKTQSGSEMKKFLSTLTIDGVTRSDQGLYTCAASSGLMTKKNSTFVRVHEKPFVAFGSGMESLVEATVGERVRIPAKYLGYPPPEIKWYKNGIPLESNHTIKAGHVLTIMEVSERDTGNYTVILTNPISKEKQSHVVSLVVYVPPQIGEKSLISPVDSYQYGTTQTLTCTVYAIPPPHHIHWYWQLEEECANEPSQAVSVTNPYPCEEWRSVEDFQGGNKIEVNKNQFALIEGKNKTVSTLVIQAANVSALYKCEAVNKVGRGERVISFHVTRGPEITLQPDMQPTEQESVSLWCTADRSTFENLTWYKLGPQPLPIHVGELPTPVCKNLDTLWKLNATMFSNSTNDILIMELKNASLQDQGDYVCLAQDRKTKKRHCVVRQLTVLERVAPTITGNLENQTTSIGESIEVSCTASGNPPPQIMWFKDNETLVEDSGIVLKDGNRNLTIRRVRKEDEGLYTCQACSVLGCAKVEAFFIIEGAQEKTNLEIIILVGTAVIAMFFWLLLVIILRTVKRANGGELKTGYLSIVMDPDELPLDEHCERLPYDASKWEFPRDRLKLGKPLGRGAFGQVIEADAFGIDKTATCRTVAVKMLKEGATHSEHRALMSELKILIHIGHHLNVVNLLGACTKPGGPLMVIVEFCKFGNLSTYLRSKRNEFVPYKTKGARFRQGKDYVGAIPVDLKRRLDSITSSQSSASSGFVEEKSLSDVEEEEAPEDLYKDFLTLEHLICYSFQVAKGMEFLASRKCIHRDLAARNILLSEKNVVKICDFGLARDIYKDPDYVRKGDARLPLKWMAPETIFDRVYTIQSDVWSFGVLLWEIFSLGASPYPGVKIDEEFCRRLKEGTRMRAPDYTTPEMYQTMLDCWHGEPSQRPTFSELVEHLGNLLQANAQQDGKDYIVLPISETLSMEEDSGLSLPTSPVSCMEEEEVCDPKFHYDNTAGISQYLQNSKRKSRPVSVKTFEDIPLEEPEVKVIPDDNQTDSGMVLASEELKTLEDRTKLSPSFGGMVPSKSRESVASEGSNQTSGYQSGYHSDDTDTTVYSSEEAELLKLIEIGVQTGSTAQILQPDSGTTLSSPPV
Give a bare numeral; the unit nM is implied.

Sample records with IC50:
In [3]: df
Out[3]:
                                   compound  readout_type  result_unit  recorded_number
0  CS(=O)(=O)c1ccc(C(=O)N2N=C(c3ccccc3)CC2c2ccc(F)cc2)cc1 (stereo not drawn) [Compound 18c]          IC50           nM              218
1  CS(=O)(=O)c1ccc(C(=O)N2N=C(c3ccccc3)CC2c2ccccc2O)cc1 (stereo not drawn) [Compound 18h]          IC50           nM              135

Note: attention shifts to another entry.
IN: Please indicate recorded IC50 of Cc1ccc(C2=NN(C(=O)c3ccc(S(C)(=O)=O)cc3)C(c3ccc(C)cc3)C2)cc1 (stereo not drawn) [Compound 18g] measured with VEGFR2 (Homo sapiens).
OUT: 168

* * *

# ASSAY REMARKS: in vitro
# CONDITIONS USED: human
This section presents compounds with their documented IC50 at 48 h values.
Response body: numeric value in µM, unit text excluded.

Examples with their reported IC50 at 48 h follow.
COMPOUND	RESULT UNIT	IC50 at 48 h
CS(=O)(=O)c1ccc(C(=O)N2N=C(c3ccccc3)CC2c2ccccc2O)cc1 (centres unmarked) [Compound 18h]	µM	40.9
COc1cccc2c1C(=O)c1c(O)c3c(c(O)c1C2=O)C[C@@](O)(C(=O)CO)C[C@@H]3O[C@H]1C[C@H](N)[C@H](O)[C@H](C)O1 [DOX, doxorubicin, reference compound]	µM	7.12
CN(C)C/C=C/C(=O)Nc1cc2c(Nc3ccc(F)c(Cl)c3)ncnc2cc1O[C@H]1CCOC1 [Afatinib, reference compound]	µM	44
Cc1ccc(C2=NN(C(=O)c3ccc(S(C)(=O)=O)cc3)C(c3ccc(C)cc3)C2)cc1 (centres unmarked) [Compound 18g]	µM	26.2

Consider the additional compound presented here.
IN: Identify IC50 at 48 h associated with the compound CS(=O)(=O)c1ccc(C(=O)N2N=C(c3ccccc3)CC2c2ccc(F)cc2)cc1 (centres unmarked) [Compound 18c]
OUT: 34.8
